biological target: Estrogen receptor (Homo sapiens) (UniProt P03372); experiment: Relative binding affinity of E isomers to human ERalpha-HBD at 4C compared to [3H]-estradiol
Sequence (P03372 whole entry): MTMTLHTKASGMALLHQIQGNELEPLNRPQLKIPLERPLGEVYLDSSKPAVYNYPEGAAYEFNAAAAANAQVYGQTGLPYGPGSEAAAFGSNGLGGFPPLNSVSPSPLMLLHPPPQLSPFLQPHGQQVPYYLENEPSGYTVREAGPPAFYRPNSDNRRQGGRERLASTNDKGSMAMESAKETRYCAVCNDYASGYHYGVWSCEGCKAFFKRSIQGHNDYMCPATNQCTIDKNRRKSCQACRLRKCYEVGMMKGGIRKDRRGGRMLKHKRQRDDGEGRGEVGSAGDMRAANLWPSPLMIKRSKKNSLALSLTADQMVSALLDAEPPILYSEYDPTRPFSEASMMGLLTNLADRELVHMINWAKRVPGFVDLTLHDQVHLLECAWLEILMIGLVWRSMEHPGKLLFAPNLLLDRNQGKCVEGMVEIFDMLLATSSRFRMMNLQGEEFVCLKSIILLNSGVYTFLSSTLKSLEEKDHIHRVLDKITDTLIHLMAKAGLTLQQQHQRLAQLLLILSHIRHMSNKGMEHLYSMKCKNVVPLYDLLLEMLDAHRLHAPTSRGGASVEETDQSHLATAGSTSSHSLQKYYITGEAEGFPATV
Give RBA for every item shown.

Reported RBA of Cc1ccc(/C=C\[C@]2(O)CC[C@H]3[C@@H]4CCc5cc(O)ccc5[C@H]4CC[C@@]32C)cc1 : 10%

Reported RBA of C[C@]12CC[C@@H]3c4ccc(O)cc4CC[C@H]3[C@@H]1CC[C@@]2(O)/C=C\c1ccc(C#N)cc1 : 9%

Reported RBA of C[C@]12CC[C@@H]3c4ccc(O)cc4CC[C@H]3[C@@H]1CC[C@@]2(O)/C=C\c1ccc(F)cc1 : 24%

Reported RBA of COc1ccc(/C=C\[C@]2(O)CC[C@H]3[C@@H]4CCc5cc(O)ccc5[C@H]4CC[C@@]32C)cc1 : 36%

Reported RBA of CC(=O)c1ccc(/C=C\[C@]2(O)CC[C@H]3[C@@H]4CCc5cc(O)ccc5[C@H]4CC[C@@]32C)cc1 : 53%

Reported RBA of C[C@]12CC[C@@H]3c4ccc(O)cc4CC[C@H]3[C@@H]1CC[C@@]2(O)/C=C\c1ccc(C(F)(F)F)cc1 : 5%

Reported RBA of C[C@]12CC[C@@H]3c4ccc(O)cc4CC[C@H]3[C@@H]1CC[C@@]2(O)/C=C\c1ccc(O)cc1 : 21%

Reported RBA of C[C@]12CC[C@@H]3c4ccc(O)cc4CC[C@H]3[C@@H]1CC[C@@]2(O)/C=C\c1ccccc1 : 16%

====

target: Estrogen receptor (Homo sapiens) (UniProt P03372); assay: Relative binding affinity of E isomers to human ERalpha-HBD at 25 degree C compared to [3H]estradiol
Give RBA for every item shown.

Entry C[C@]12CC[C@@H]3c4ccc(O)cc4CC[C@H]3[C@@H]1CC[C@@]2(O)/C=C\c1ccccc1 , Estrogen receptor (Homo sapiens) (UniProt P03372) data, RBA value: 9%

Entry CC(=O)c1ccc(/C=C\[C@]2(O)CC[C@H]3[C@@H]4CCc5cc(O)ccc5[C@H]4CC[C@@]32C)cc1 , Estrogen receptor (Homo sapiens) (UniProt P03372) data, RBA value: 60%

Entry C[C@]12CC[C@@H]3c4ccc(O)cc4CC[C@H]3[C@@H]1CC[C@@]2(O)/C=C\c1ccc(C#N)cc1 , Estrogen receptor (Homo sapiens) (UniProt P03372) data, RBA value: 27%

Entry C[C@]12CC[C@@H]3c4ccc(O)cc4CC[C@H]3[C@@H]1CC[C@@]2(O)/C=C\c1ccc(C(F)(F)F)cc1 , Estrogen receptor (Homo sapiens) (UniProt P03372) data, RBA value: 8%

====

biological target: Estrogen receptor (Homo sapiens); experiment: Relative binding affinity of E isomers to human ERalpha-HBD at 25 degree C compared to [3H]estradiol
Give RBA for every item shown.
// note: answer is a bare numeric in %

Reported RBA of C[C@]12CC[C@@H]3c4ccc(O)cc4CC[C@H]3[C@@H]1CC[C@@]2(O)/C=C\c1ccc(F)cc1 : 22

Reported RBA of Cc1ccc(/C=C\[C@]2(O)CC[C@H]3[C@@H]4CCc5cc(O)ccc5[C@H]4CC[C@@]32C)cc1 : 18

Reported RBA of COc1ccc(/C=C\[C@]2(O)CC[C@H]3[C@@H]4CCc5cc(O)ccc5[C@H]4CC[C@@]32C)cc1 : 32

Reported RBA of C[C@]12CC[C@@H]3c4ccc(O)cc4CC[C@H]3[C@@H]1CC[C@@]2(O)/C=C\c1ccc(O)cc1 : 25
